// IC50 lookup, one value per entry
biological target: cAMP PDE; assay: Phosphodiesterase (PDE) inhibitory activity, cAMP substrate; settings: 0.14 μM 14C-labeled cAMP, pH 8.0, 30° C., 20 minutes, crude enzyme from rat brains; read-out: I50 cAMP PDE
measurement.type: IC50 (µM)

>  <compound>
Nc1ncnc2c1ncn2C1OC2=CC(C(=O)O)([C@H](Br)C(=O)O)OC2[C@H]1O (stereo partly drawn) [Compound No. 137, 7'(S)-bromo-7'-deoxygriseolic acid]

>  <units.of.measure>
µM

>  <reported>
3.4

$$$$
>  <compound>
Nc1ncnc2c1ncn2C1OC2=CC(C(=O)O)([C@H](N)C(=O)O)OC2[C@H]1O (stereo partly drawn) [Compound No. 135, 7'(S)-amino-7'-deoxygriseolic acid]

>  <units.of.measure>
µM

>  <reported>
2

$$$$
>  <compound>
NNc1ncnc2c1ncn2C1OC2=CC(C(=O)O)([C@@H](O)C(=O)O)OC2[C@H]1O (stereo partly drawn) [Compound No. 60, 6-desamino-6-hydrazinogriseolic acid]

>  <units.of.measure>
µM

>  <reported>
5.4

$$$$

----------
biological target: cAMP PDE; test: Phosphodiesterase (PDE) inhibitory activity, cAMP substrate; conditions: 0.14 μM 14C-labeled cAMP, pH 8.0, 30° C., 20 minutes, crude enzyme from rat brains; read-out: I50 cAMP PDE
pIC50: −log10 of the molar value.
// pIC50 lookup, one value per entry

>  <compound>
Cn1c(=O)c2[nH]cnc2n(C)c1=O [theophylline, reference compound]

>  <measured.target>
cAMP PDE

>  <pIC50>
3.44

$$$$
>  <compound>
O=C(O)[C@H](O)C1(C(=O)O)C=C2OC(n3cnc4c(S)ncnc43)[C@H](O)C2O1 (stereo partly drawn)

>  <measured.target>
cAMP PDE

>  <pIC50>
4.72

$$$$
>  <compound>
Nc1ncnc2c1ncn2C1OC2=CC(C(=O)O)([C@@H](O)C(=O)O)OC2[C@@H]1Cl (stereo partly drawn) [Compound No. 142, 2'(S)-chloro-2'-deoxygriseolic acid]

>  <measured.target>
cAMP PDE

>  <pIC50>
6.82

$$$$
>  <compound>
COc1ncnc2c1ncn2C1OC2=CC(C(=O)O)([C@@H](O)C(=O)O)OC2[C@H]1O (stereo partly drawn)

>  <measured.target>
cAMP PDE

>  <pIC50>
5.00

$$$$
>  <compound>
CNc1ncnc2c1ncn2C1OC2=CC(C(=O)O)([C@@H](O)C(=O)O)OC2[C@H]1O (stereo partly drawn)

>  <measured.target>
cAMP PDE

>  <pIC50>
5.70

$$$$
>  <compound>
Nc1ncnc2c1ncn2C1OC2=CC(C(=O)O)([C@@H](OC(=O)c3ccccc3)C(=O)O)OC2[C@H]1O (stereo partly drawn)

>  <measured.target>
cAMP PDE

>  <pIC50>
6.51

$$$$

----------
Target: cGMP PDE
Assay: Phosphodiesterase (PDE) inhibitory activity, cGMP substrate
Details: cGMP as substrate, crude enzyme from rat brains; read-out: I50 cGMP PDE
Procedure: The test was carried out following essentially the method of A. L. Pichard and Y. U. Chung [Journal of Biological Chemistry, 251, 5726-5737 (1976)]. A crude enzymatic solution derived from rat brains was used as the source of cAMP PDE. ^14 C-labeled cAMP was used as the substrate. […] At the end of this time, the reaction mixture was treated with an Amberlite (trade mark) IRP-58 resin and the level of residual adenosine radioactivity in the product was determined. […]
// IC50 lookup, one value per entry
measurement.type: IC50 (µM)

>  <compound>
NNc1ncnc2c1ncn2C1OC2=CC(C(=O)O)([C@@H](O)C(=O)O)OC2[C@H]1O (stereo partly drawn) [Compound No. 60, 6-desamino-6-hydrazinogriseolic acid]

>  <measured.target>
cGMP PDE

>  <measurement.type>
IC50

>  <reported>
4.8

$$$$
>  <compound>
Nc1ncnc2c1ncn2C1OC2=CC(C(=O)O)([C@H](Br)C(=O)O)OC2[C@H]1O (stereo partly drawn) [Compound No. 137, 7'(S)-bromo-7'-deoxygriseolic acid]

>  <measured.target>
cGMP PDE

>  <measurement.type>
IC50

>  <reported>
19

$$$$
>  <compound>
O=C(Nc1ncnc2c1ncn2C1OC2=CC(C(=O)O)([C@@H](OC(=O)c3ccccc3)C(=O)O)OC2[C@H]1O)c1ccccc1 (stereo partly drawn) [Compound No. 39, N^6,O^7' -dibenzoylgriseolic acid]

>  <measured.target>
cGMP PDE

>  <measurement.type>
IC50

>  <reported>
111

$$$$
